Target: recombinant human CD38 (human, UniProt P28907 43-300, limits assumed)
Experiment: SPR (Biacore 8K), antibody captured, antigen injected;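 note: antibodies held on a CM5 chip through anti-human IgG Fc, antigen in 3-fold serial dilutions, 1 min association then 10 min dissociation at 25 °C, 1:1 Langmuir global fit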
List of kon values.
MEASURED_ENDPOINT: kon (M⁻¹ s⁻¹)

BINDER | REPORTED_RESULT
27F6 (antibody, human IgG1, kappa, V domains shown, Rabbit-human chimeric anti-CD38: rabbit VH and VL on human IgG1 and kappa constant regions) VH: QSLEESGGGLVKPGASLTLTCKASGFSFSSGCDMCWVRQAPGKGLEWISCIYTGSGSTYYANWAKGRFTISRTSSTTVTLQMTSLTAADTATYFCAGDSDYLGLWGPGTLVTVSS VL: DIVMTQTPSSVEAAVGGTVTIKCQASQNIGNYLAWYQQKPGQPPKVLIYRASTLASGVPSRFKGSGSGTHFTLTISDLESADAATYYCQSYYYTTDDNYRSWAFGGGTEVVVKR | 376000
25F12 (antibody, human IgG1, kappa, V domains shown, Rabbit-human chimeric anti-CD38: rabbit VH and VL on human IgG1 and kappa constant regions) VH: RSLEESGGRLVTPGTPLTLTCTTSGFSLSSYDMSWVRQAPGKGLEWIGYITYGGNIYYATWAKGRFTTSKTSTTVDLKITSPTTEDTATYFCARTLYTGGRYYFSLWGPGTLVTVSS VL: AQVLTQTPSSVSAVVGGTVTINCQSSQSIANSNEVAWYQQKLGQPPKLLIYDASTLASGVPSRFSGSGSGTQFTLIISGVQSDDAATYYCQGTVYDNVWYAAFGGGTEVVVKR | 1.84e+06
17E9 (antibody, human IgG1, kappa, V domains shown, Rabbit-human chimeric anti-CD38: rabbit VH and VL on human IgG1 and kappa constant regions) VH: QSVEESGGRLVTPGTPLTLTCTASGFSLSRYYVTWVRQAPGKGLEWIGIIYISGTTYYATWAKGRFTISKSATTVDLRIASPTTEDTATYFCAAAWPVGTYVLPLWGPGTLVTVSS VL: AAVLTQTPSPVSAAVGGTVTIKCQSSQSVVNANNLSWYQQKPGQPPKLLIYLASTLASGVPSRFSGSGSGTQFTLTISSVQSDDAATYYCLGVYDDDGDNAFGGGTEVVVKR | 923000
